Ref: patent US20230414703A1

- measurement-target: T1, mouse PD-1 receptor (mouse, UniProt Q02242 25-167, limits assumed)
- T1 sequence (looked up): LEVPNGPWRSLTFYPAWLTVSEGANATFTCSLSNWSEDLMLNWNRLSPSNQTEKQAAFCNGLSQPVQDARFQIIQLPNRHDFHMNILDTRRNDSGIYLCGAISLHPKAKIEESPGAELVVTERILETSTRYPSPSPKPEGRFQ
- method-notes: BIACORE T-200 SPR, PD-1 immobilised on CM5, steady state
measure: pKd
On this scale, pKd is minus log10 of a concentration expressed in M (mol/L).

Use these answered entries as a reference point.
binder | pKd
WNLPASFHNHHIRPHEHEWIQ (also called WQ-21) [peptide WQ20] | 3.12
SSYHHFKMPELHFGKNTFHQ (Found by phage display) [peptide SQ20] | 4.33
QTRTVPMPKIHHPPWQNVVP (Found by phage display) [peptide QP20] | 4.26

// lookup pKd for HHHQVYQVRSHWTGMHSGHD (Found by phage display) [peptide HD20]
3.63
